# System: HCC-2998 colon
# assay explanation: NCI-60 one-dose screen, 48 h
# condition notes: 10 µM unless noted
Compounds without any hit were thinned out: in the full panel of roughly 83,000, 20% have a hit. Activity calls are given as the source filed them. How the source made its calls: active means growth percent below 10; inactive means the rest.
Classes used: active, inactive

- compound: "COc1cccc(-c2nn(-c3ccccc3)cc2-c2ccnc(N3CCOCC3)c2)c1"
  assigned label: "inactive"
- compound: "C=C1C(=O)O[C@H]2[C@H]1CC/C(COC(=O)CCSSCCC(=O)OC/C1=C/CC[C@@]3(C)O[C@H]3[C@H]3OC(=O)C(=C)[C@@H]3CC1)=C\\CC[C@@]1(C)O[C@@H]21"
  assigned label: "inactive"
- compound: "CCOC(=O)c1cn2ncnc(Oc3ccc(NC(=O)NCCN4CCOCC4)c(Cl)c3)c2c1C"
  assigned label: "inactive"
- compound: "CC1CN(C2CCCCC2)C(=S)N(c2ccccc2)C1=O (centres undefined)"
  assigned label: "inactive"
- compound: "Cc1ccc(S(=O)(=O)N/N=C/C2(c3ccccc3)CC2)cc1"
  assigned label: "inactive"
- compound: "O=C(Oc1cccc2ccccc12)Oc1cccc2ccccc12"
  assigned label: "inactive"
- compound: "COc1cccc(OC)c1C(=O)N[C@@H]1C(=O)N2[C@@H]1SC(C)(C)[C@@H]2C(=O)O"
  assigned label: "inactive"
- compound: "COC(=O)/C=C1\\S/C(=N\\Nc2ccc([N+](=O)[O-])cc2[N+](=O)[O-])N(C2CCCCC2)C1=O"
  assigned label: "inactive"
- compound: "CC1(C)C2CC1C1(/C=N\\Nc3ccccc3)C(C2)C(C#N)(C#N)C1(C#N)C#N (centres undefined)"
  assigned label: "inactive"
- compound: "O=C(CSc1nccc(Nc2ccc(S(=O)(=O)Nc3nccs3)cc2)n1)c1ccc(C(F)(F)F)cc1"
  assigned label: "inactive"
- compound: "O=[N+]([O-])c1ccc(Oc2nc(Nc3ccc(O[C@H]4CO[C@H]5[C@@H]4OC[C@@H]5O)c(Cl)c3)ncc2F)c(Cl)c1"
  assigned label: "inactive"
- compound: "CCc1nnc(NC(=O)c2nnn(-c3ccccc3)c2-c2ccco2)s1"
  assigned label: "inactive"
- compound: "Cc1cc(C)c(-c2c(N)cc(Br)cc2Br)c(N)c1"
  assigned label: "inactive"
- compound: "O=c1c2cc(F)ccc2sc2c(NCCN3CCOCC3)nc3ccccc3c12"
  assigned label: "inactive"
- compound: "CCCCCCN(CCCCCC)c1ccc(/C=C2/SC(=O)NC2=O)c(C)c1"
  assigned label: "inactive"
- compound: "CN1CCN(c2ccc(-c3ccc4ncc(C#N)c(Nc5ccc(F)c(Cl)c5)c4c3)cn2)CC1"
  assigned label: "inactive"
- compound: "CCCCCCCNC(=O)CCCNc1ncnc2c1ncn2-c1cccc(C(C)O)c1 (centres undefined)"
  assigned label: "inactive"
- compound: "CCOc1cccc(NC2=C(Br)C(=O)C(C)=C(C)C2=O)c1"
  assigned label: "inactive"
- compound: "Cc1ccc(-c2nc(N3CCN(C(=O)Nc4ccc(Cl)c(C(F)(F)F)c4)CC3)c3ccccc3n2)cc1"
  assigned label: "inactive"
- compound: "CC1=NN(c2ccc(S(=O)(=O)O)cc2)C(=O)C1N=Nc1ccc(-c2ccc(N=Nc3ccc(OS(=O)(=O)c4ccc(C)cc4)cc3)c(S(=O)(=O)O)c2)cc1 (centres undefined)"
  assigned label: "inactive"
- compound: "CN1CCN(Cc2ccc(NC(=O)c3cncc(C#Cc4cnccc4C#N)c3)cc2C(F)(F)F)CC1"
  assigned label: "inactive"
- compound: "CCCCCCCCCCCCCCCCCC1OCC(COC(=O)O[C@]2(CC)C(=O)OCc3c2cc2n(c3=O)Cc3cc4ccccc4nc3-2)O1 (some centres undefined)"
  assigned label: "inactive"
- compound: "COc1ccc(S(=O)(=O)n2cc(C3OC(c4cc(OC)c(OC)c(OC)c4)=NN3C(C)=O)c3ccccc32)cc1OC (centres undefined)"
  assigned label: "inactive"
- compound: "Cc1cc(N2CCCC2)nc(N(CCCNc2ccnc3cc(Cl)ccc23)Cc2ccccn2)n1"
  assigned label: "inactive"
- compound: "Cc1cc(O)c(C2=NN(c3ccc(S(N)(=O)=O)cc3)C(/C=C/c3ccccc3)C2)cc1Cl (centres undefined)"
  assigned label: "inactive"
- compound: "COc1ccc2sc3c(NCCO)nc4ccccc4c3c(=O)c2c1"
  assigned label: "inactive"
- compound: "CS(=O)(=O)Nc1cc(-c2ccc3ncnc(Nc4cccc(Cl)c4F)c3c2)cnc1Cl"
  assigned label: "inactive"
- compound: "Brc1ccc2[nH]cc(-c3nc(-c4c[nH]c5ccncc45)cs3)c2c1"
  assigned label: "active"
- compound: "COc1ccc(-c2nc3sc(-c4ccc(Cl)cc4)cn3n2)cc1"
  assigned label: "inactive"
